Molecular target: Methanococcus maripaludis chaperonin (MmCpn) (UniProt Q6LX38)
Sequence (Q6LX38 1-543): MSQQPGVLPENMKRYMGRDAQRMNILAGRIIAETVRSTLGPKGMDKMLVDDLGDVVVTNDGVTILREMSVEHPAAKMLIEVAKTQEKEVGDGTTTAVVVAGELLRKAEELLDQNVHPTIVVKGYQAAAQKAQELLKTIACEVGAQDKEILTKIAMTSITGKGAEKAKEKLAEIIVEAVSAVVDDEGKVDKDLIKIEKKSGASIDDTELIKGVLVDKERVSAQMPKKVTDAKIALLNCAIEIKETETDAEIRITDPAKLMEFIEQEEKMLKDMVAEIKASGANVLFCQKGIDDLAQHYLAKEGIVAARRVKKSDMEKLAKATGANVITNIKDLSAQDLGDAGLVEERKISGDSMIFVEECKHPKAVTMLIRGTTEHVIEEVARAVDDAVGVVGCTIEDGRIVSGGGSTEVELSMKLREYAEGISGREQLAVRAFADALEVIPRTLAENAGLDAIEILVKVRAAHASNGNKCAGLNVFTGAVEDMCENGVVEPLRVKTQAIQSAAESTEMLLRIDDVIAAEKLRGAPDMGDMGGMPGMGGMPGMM
Assay: High-Throughput Screening for Modulators of Cytosolic Chaperonin Activity: MmCpn Primary Screen (AID 488978);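 further: 50 nM MmCpn enzyme hydrolysing 30 µM ATP at 37 °C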
Conditions: Purified MmCpn ATPase activity, ADP HTRF detection, 10 min; series mostly up to 76.9 µM
Source text: Chaperonins are key components of the cellular chaperone machinery. These large complexes consist of two stacked 7-9 membered rings, each containing a central cavity. Substrates are folded within the cavity in an ATP-dependent manner. TRiC is a complex of eight different, essential proteins. […] 7. Read using EnVision plate reader at Excitation = 320nm and Emission = 590nm, 665nm
Activity calls are given as the source filed them. The call rests on the fitted dose curve; in most records, active means well fitted curve in the direction sought with a large enough effect; inconclusive means small, poorly fitted or top-dose-only effect, or another doubt; inactive means no such curve, though single readings can be large or run the other way.
QUANTITY: outcome

COc1ccccc1N1CCNCC1 = inactive
C=C(C)[C@H]1Cc2c(ccc3c2O[C@@H]2COc4cc(OC)c(OC)cc4[C@@H]2C3=O)O1 = inactive
O=c1[nH]c2ccccc2n1CCCN1CCC(n2c(=O)[nH]c3cc(Cl)ccc32)CC1 = inactive

Source of measurements: PubChem BioAssay (NCATS)
